Below, each of the binders is paired with its reported Kd value.
Biological target: T1, EsCas13d, nuclease-dead (Eubacterium siraeum, UniProt B0MS50, R295A;H300A;R849A;H854A)
T1 sequence: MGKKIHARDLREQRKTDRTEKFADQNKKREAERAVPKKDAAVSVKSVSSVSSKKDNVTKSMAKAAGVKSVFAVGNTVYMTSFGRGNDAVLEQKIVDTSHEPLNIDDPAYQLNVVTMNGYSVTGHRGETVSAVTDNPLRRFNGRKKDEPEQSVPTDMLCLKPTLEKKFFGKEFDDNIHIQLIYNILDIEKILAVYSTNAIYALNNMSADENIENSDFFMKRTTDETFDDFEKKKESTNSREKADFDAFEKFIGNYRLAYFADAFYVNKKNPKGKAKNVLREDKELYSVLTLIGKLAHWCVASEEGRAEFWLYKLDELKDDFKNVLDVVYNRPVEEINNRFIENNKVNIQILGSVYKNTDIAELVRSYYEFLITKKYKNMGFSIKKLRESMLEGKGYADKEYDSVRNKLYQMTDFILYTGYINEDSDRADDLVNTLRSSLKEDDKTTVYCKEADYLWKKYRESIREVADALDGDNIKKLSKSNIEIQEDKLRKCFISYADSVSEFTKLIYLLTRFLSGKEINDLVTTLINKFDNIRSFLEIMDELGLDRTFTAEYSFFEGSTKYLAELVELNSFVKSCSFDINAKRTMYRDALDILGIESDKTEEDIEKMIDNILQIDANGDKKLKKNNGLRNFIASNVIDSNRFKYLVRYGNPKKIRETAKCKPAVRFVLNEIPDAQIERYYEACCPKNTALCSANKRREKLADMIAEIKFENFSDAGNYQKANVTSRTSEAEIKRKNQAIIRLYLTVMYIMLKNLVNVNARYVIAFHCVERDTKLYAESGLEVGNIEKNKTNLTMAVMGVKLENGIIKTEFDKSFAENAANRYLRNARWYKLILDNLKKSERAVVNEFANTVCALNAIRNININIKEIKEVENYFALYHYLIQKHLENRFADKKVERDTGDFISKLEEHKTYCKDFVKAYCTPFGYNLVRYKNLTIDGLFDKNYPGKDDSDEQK
Test: crRNA (strand 1, pre-loaded); Mg2+; 40 mM Tris-HCl pH 7.5, 150 mM NaCl, 6 mM MgCl2, 1 mM DTT, 0.1% Tween-20, 0.2 mg/ml BSA; 25 C; 10 min per concentration, then washed
Settings: tags: His6-TwinStrep-SUMO cleaved; N-terminal SNAP kept (SNAP-Surface 488); label: 3' end held by stalled T7 RNA polymerase
Write the number in nM without appending the unit.

target 1 insG 3' of 18,insU 3' of 15 (mixed) RNA 1: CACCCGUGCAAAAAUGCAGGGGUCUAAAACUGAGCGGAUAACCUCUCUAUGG RNA 2: GGGAAUGGAUCCACAUCUACGAAUUCGUACCAUAGGAGUAGGUUAUCCGCUCACCGAGAUCGGAAGAGCACACGU: 70

Param item = target 1 insC 3' of 18,insG 3' of 4 (mixed) RNA 1: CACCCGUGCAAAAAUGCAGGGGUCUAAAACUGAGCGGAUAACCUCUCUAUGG RNA 2: GGGAAUGGAUCCACAUCUACGAAUUCGUACCAUACGAGAGGUUAUCCGCGUCACCGAGAUCGGAAGAGCACACGU ; retrieve measured Kd.
35.7

These data points were gathered from paper PMC10786891.
